molecular target: Calmodulin-1 (Homo sapiens); assay: calcium-bound CALM1 binders on microarrays, profiling panel, artefact control for SMM control-protein annotation, biochemical, small-molecule microarray, Cy5-labelled CALM1, plus calcium (AID 1112); conditions: Cy5-CALM1 binding fluorescence, higher = more signal;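 further: score merges spot fluorescence with signal to noise from triplicate slides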
observedProperty: composite z-score
Answer with a bare number; do not write a unit.

Bench note: what composite z-score did CC(=O)NCCCC[C@@H]1NC(=O)[C@@H]2C[C@H](C(=O)NCCCCCNC(=O)CS)[C@H](c3cccc(OCCO)c3)N2C1=O show?
-0.754

Further, for C=CC[C@@]1(C(=O)NCCN2CCOCC2)N=C(c2ccc(OCCCO)cc2)O[C@@H]1c1ccccc1N=[N+]=[N-] ?
0.581

Moving on to CN(C)C(=O)[C@]1(Cc2ccccc2N=[N+]=[N-])N=C(c2ccc(OCCCO)cc2)O[C@@H]1c1ccccc1N=[N+]=[N-]
0.497

What do you have for O=C(CS)NCCCCCCNC(=O)[C@@H]1C[C@@H]2C(=O)NCC(=O)N2[C@@H]1c1cccc(OCCO)c1 ?
-0.215
